- tested system: 15-hydroxyprostaglandin dehydrogenase [NAD(+)] (Homo sapiens) (UniProt P15428)
- Sequence (P15428 whole entry, looked up): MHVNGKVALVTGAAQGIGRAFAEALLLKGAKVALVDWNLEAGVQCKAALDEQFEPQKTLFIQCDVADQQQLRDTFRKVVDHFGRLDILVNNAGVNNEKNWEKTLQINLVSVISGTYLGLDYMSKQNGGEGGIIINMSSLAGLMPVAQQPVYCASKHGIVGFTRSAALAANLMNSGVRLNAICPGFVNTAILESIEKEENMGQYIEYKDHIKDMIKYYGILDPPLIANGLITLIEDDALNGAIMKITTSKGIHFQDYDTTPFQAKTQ
- assay procedure: qHTS Assay for Inhibitors of HPGD (15-Hydroxyprostaglandin Dehydrogenase); further: on the % scale 0 is the no-effect control and ±100 the full control effect
- stated conditions: purified HPGD, NADH fluorescence kinetic, PGE2 substrate; hits give low values
Hit rate of the full screen: of about 150,000 compounds, about 6,500 (4.3%) were called active. Roughly 12% stayed inconclusive and do not appear here. This is one part of a sample in which actives are shown more often than they occur.
Examples of molecules with documented activity change, negative = inhibition follow.
result type: activity change, negative = inhibition (%)

>  <molecule>
Cc1ccc(-n2c(C)cc(/C=C3\C(=O)NC(=O)N(C)C3=O)c2C)cc1C

>  <result type>
activity change, negative = inhibition

>  <measured number>
-10.2

$$$$
>  <molecule>
CC(C)(O)c1[se]c2ccccc2c1I

>  <result type>
activity change, negative = inhibition

>  <measured number>
-24.2

$$$$
>  <molecule>
c1csc(CN2CCCC3(CCNCC3)C2)n1

>  <result type>
activity change, negative = inhibition

>  <measured number>
-0.589

$$$$
>  <molecule>
COC1=C[C@@H]2[C@@H]3Cc4ccc(OC)c(O)c4[C@]2(CCN3C)CC1=O

>  <result type>
activity change, negative = inhibition

>  <measured number>
-2.46

$$$$
>  <molecule>
O=C(c1cc(-c2ccncc2)nc2ccccc12)N1CCC2(CC1)OCCO2

>  <result type>
activity change, negative = inhibition

>  <measured number>
-3.06

$$$$
>  <molecule>
C=CCN1CCC23c4c5ccc(O)c4O[C@H]2C(=O)CC[C@@]3(O)C1C5 (some centres not stated)

>  <result type>
activity change, negative = inhibition

>  <measured number>
-13.3

$$$$
>  <molecule>
CC(=O)OC1C2CCC3C1(CC(O)[C@@]1(O)[C@@H](CC(O)C1(C)C)[C@]3(C)O)C[C@@]2(C)O (some centres not stated)

>  <result type>
activity change, negative = inhibition

>  <measured number>
-0.742

$$$$
>  <molecule>
CC(=C1C(=O)c2ccccc2C1=O)N1CCN(CCN=Cc2c(O)n(C)c(=O)n(C)c2=O)CC1

>  <result type>
activity change, negative = inhibition

>  <measured number>
-26.9

$$$$
>  <molecule>
c1ccc(CCCCN2CCC(c3ccccc3)CC2)cc1

>  <result type>
activity change, negative = inhibition

>  <measured number>
-7.8

$$$$
>  <molecule>
CN[C@@H]1C[C@H]2O[C@@](C)([C@@H]1OC)n1c3ccccc3c3c4c(c5c6ccccc6n2c5c31)C(=O)NC4

>  <result type>
activity change, negative = inhibition

>  <measured number>
-25.7

$$$$
>  <molecule>
CN(C)C1C(=O)C(C(N)=O)=C(O)[C@@]2(O)C(=O)C3=C(O)c4c(O)cccc4[C@@](C)(O)C3C[C@@H]12 (some centres not stated)

>  <result type>
activity change, negative = inhibition

>  <measured number>
-15.2

$$$$
>  <molecule>
CCN1C[C@]2(C)CC[C@H](O)[C@@]34[C@@H]5CC6[C@@H](OC)C[C@@](O)([C@@H]5[C@@H]6O)[C@H](C[C@@H]23)[C@H]14

>  <result type>
activity change, negative = inhibition

>  <measured number>
-6.3

$$$$
>  <molecule>
O=[N+]([O-])c1ccc(Cl)c(Cl)c1

>  <result type>
activity change, negative = inhibition

>  <measured number>
-4.16

$$$$
>  <molecule>
Cc1nc2ccccn2c1P(=S)(N1CCCCC1)N1CCCCC1

>  <result type>
activity change, negative = inhibition

>  <measured number>
-26.7

$$$$
>  <molecule>
COc1c(O)ccc2c1-c1c3c(cc4c1C(C2)N(C)CC4)OCO3 (configuration not stated)

>  <result type>
activity change, negative = inhibition

>  <measured number>
-4.96

$$$$
>  <molecule>
C[C@@]12CCC3C(CC[C@@H]4CC(O)CC[C@@]34C)C1CCC2O (some centres not stated)

>  <result type>
activity change, negative = inhibition

>  <measured number>
-3.43

$$$$
>  <molecule>
CCC/C(=N\O)c1c[nH]c2ccccc12

>  <result type>
activity change, negative = inhibition

>  <measured number>
-17.4

$$$$
